meta.source: patent US20250236673A1

Reported values of kon for individual entries
- target_entity: T1, human serum albumin (human, UniProt P02768 25-609)
- T1 construct: Immobilised by amine coupling on a C1 chip; also called HSA
- measurement_notes: SPR Biacore 8K+, HSA amine-coupled on C1 chip, ISVD analyte, 1:1 fit
measured_endpoint: kon (M⁻¹ s⁻¹)

- T028501808 (VHH, K43H vs precursor T028501805; also called HSA006A06(K43H, K83R)) VHH: EVQLVESGGGVVQPGGSLRLSCAASGFTFRSFGMSWVRQAPGHGPEWVSSISGSGSDTLYADSVKGRFTISRDNSKNTLYLQMNSLRPEDTALYYCTIGGSLSRSSQGTLVTVSS: 728000
- T028501805 (VHH, also called ALB00622; HSA006A06(K83R)) VHH: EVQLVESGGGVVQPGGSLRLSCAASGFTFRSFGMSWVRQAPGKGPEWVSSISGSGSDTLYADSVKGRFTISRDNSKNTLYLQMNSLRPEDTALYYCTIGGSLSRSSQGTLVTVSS: 772000
- T028501810 (VHH, K64E vs precursor T028501805; also called HSA006A06(K64E,K83R)) VHH: EVQLVESGGGVVQPGGSLRLSCAASGFTFRSFGMSWVRQAPGKGPEWVSSISGSGSDTLYADSVEGRFTISRDNSKNTLYLQMNSLRPEDTALYYCTIGGSLSRSSQGTLVTVSS: 644000
- T028501835 (VHH, K64A vs precursor T028501805; also called HSA006A06(K64A, K83R)) VHH: EVQLVESGGGVVQPGGSLRLSCAASGFTFRSFGMSWVRQAPGKGPEWVSSISGSGSDTLYADSVAGRFTISRDNSKNTLYLQMNSLRPEDTALYYCTIGGSLSRSSQGTLVTVSS: 524000
